biological target: MER (Homo sapiens, UniProt Q12866); assay: Enzymatic assay (ADP-Glo kinase reaction), MER; type: biochemical; details: 10 μM ATP, 60 min, ADP-GLO luminescence
Sequence (Q12866 21-999): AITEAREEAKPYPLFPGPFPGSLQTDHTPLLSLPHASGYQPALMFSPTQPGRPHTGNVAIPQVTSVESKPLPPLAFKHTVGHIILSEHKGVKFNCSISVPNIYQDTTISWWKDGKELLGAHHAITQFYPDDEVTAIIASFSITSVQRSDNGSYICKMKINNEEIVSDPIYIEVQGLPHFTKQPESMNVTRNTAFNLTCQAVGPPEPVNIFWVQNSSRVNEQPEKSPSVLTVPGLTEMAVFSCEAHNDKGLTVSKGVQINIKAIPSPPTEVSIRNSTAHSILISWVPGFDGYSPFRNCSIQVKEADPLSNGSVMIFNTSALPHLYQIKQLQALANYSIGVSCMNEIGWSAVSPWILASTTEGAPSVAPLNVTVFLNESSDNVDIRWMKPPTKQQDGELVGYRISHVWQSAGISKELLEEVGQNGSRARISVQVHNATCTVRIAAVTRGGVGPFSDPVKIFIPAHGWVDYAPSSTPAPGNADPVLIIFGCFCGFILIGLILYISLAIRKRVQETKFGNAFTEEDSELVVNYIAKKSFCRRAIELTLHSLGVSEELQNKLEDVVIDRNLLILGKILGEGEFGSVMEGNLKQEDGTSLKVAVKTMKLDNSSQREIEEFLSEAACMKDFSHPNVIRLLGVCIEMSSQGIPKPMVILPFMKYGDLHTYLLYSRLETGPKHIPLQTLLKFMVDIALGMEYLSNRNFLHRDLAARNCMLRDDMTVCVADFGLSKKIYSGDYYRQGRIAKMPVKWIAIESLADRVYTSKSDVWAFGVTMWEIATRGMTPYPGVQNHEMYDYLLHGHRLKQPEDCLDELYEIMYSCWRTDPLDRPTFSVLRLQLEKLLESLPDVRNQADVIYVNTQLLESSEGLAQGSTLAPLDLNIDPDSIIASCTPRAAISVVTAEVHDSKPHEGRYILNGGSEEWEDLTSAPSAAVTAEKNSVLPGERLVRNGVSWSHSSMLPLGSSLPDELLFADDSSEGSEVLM
IC50 listing for selected compounds.

C=CCn1cc(C(=O)Nc2ccc(Oc3ccnc(N)c3C#CC(C)(C)N3CCOCC3)c(F)c2)c(=O)n(CC=C)c1=O [Example 70]
< 10 nM
Nc1nccc(Oc2ccc(NC(=O)c3cn(C4CCOCC4)c(=O)n(-c4ccc(F)cc4)c3=O)cc2F)c1C#CCC1CCNCC1 [Example 59]
< 10 nM
COCCN1CCC(CC#Cc2c(Oc3ccc(NC(=O)c4cn(C(C)C)c(=O)n(-c5ccc(F)cc5)c4=O)cc3F)ccnc2N)CC1 [Example 28]
< 10 nM

API: the following record is the query input.
IC50 for Cc1nc(Cn2cc(C(=O)Nc3ccc(Oc4ccnc(N)c4C#CC(C)(C)N4CCOCC4)c(F)c3)c(=O)n(-c3ccc(F)cc3)c2=O)cs1 [Example 39] ?
< 100 nM
